Taken from patent US20230346952A1.

assay: Rat plasma toxicokinetics post VB302 administration at 1,000 mg/kg; conditions: both, Sprague Dawley, po, 1000 mg/kg, AUC in plasma, post VB302 oral gavage 1,000 mg/kg, 1, 2, 6, 24 hours, label = analyte in plasma
quantity-name: AUC (ng·h/mL)
The figure you give is taken to be in ng·h/mL; do not add the unit.

INSERT INTO assay_data (compound, observed) VALUES
  ('CCCCCc1cc(O[C@@H]2O[C@H](CO)[C@@H](O)[C@H](O)[C@H]2O)c2c(c1)OC(C)(C)[C@@H]1CCC(C)=C[C@@H]21 [VB302, Δ9THC-1-O-glucopyranoside]', 167000);

Lab note: next compound to report on.
Task: I have this compound here, CCCCCc1cc(O)c2c(c1)OC(C)(C)[C@@H]1CCC(C)=C[C@@H]21 [VB301, Δ9-Terahydrocannabinol, reference compound] , and I need its recorded AUC.
Output: 72
